target: ADORA2A (Homo sapiens); test: GPCR screening, Calcium Flux (calcium mobilization), Antagonist format; type: cell-based; conditions: antagonist mode, text to FIGS. 1 and 2, EC80 0.021 μM NECA; read-out: half maximal inhibitory concentration (IC50)
Sequence (P29274 whole entry): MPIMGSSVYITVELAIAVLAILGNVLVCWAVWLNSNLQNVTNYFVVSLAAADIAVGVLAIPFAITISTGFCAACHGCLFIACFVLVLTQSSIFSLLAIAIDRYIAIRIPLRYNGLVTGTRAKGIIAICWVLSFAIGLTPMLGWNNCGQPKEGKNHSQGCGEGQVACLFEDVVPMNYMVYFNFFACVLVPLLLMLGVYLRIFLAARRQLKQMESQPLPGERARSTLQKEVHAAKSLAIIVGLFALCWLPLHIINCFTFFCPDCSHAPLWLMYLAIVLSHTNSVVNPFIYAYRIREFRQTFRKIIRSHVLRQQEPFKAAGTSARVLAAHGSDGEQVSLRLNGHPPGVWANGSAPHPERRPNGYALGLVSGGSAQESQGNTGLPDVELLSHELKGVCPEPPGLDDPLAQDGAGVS
readout_label: pIC50
// pIC50: -log10(molar conc.)

// returns reported pIC50 for input `CCn1c(=O)c2c(nc(/C=C/c3ccc(OCF)c(OC)c3)n2C)n(CC)c1=O`
7.02

// returns reported pIC50 for input `CCn1c(=O)c2c(nc(/C=C/c3ccc(OC)c(OCF)c3)n2C)n(CC)c1=O`
6.76
